The origin of these recorded values is ChEMBL document CHEMBL3132759.

Measured solubility thermodynamic at 24 h of individual entries
PROTOCOL DESCRIPTION: Thermodynamic solubility of the compound after 24 hrs at pH 7.4
Type: physicochemical
ASSAY SETUP: buffer, read-out: Therm_solubility
MEASURED ENDPOINT: solubility thermodynamic at 24 h (µM)

STRUCTURE STRING | UNITS | NUMBER
O=C(O)C[C@H]1CC[C@H](c2ccc(NC(=O)c3nnc(Nc4ccc(F)c(F)c4)o3)cc2)CC1 | µM | 2
O=C(Nc1ccc(O[C@H]2CC[C@@H](C(=O)O)CC2)c(F)c1)c1nnc(Nc2cc(F)c(F)cc2F)o1 | µM | 11
O=C(O)c1ccc(Oc2ccc(NC(=O)c3nnc(Nc4ccc(F)c(F)c4)o3)cn2)cc1 | µM | 23
O=C(Nc1ccc(O[C@H]2CC[C@@H](C(=O)O)CC2)nc1F)c1nnc(Nc2cc(F)c(F)cc2F)o1 | µM | 2200
O=C(Nc1ccc(O[C@H]2CC[C@@H](C(=O)O)CC2)nc1F)c1nnc(Nc2ccc(F)c(F)c2)o1 | µM | 15
O=C(Nc1ccc(O[C@H]2CC[C@@H](C(=O)O)CC2)nc1)c1nnc(Nc2ccc(F)c(F)c2)o1 | µM | 49
O=C(Nc1ccc(O[C@H]2CC[C@H](C(=O)O)CC2)cc1F)c1nnc(Nc2cc(F)c(F)cc2F)o1 | µM | 13
